- protocol_notes: AUC (0 to infinity) in CD1 mouse at 75 mg/kg, ip measured during 15 mins to 24 hrs by LC-MS/MS analysis
- Type: ADME, organism-based
- Set-up: dose 75 mg/kg, route intraperitoneal, time infinity
- applied_conditions: in vivo
readout_kind: AUC(0-inf) (µM·h)

- COc1ncc(-c2ccc(-c3cnc4c(c3)CN(C)C4=O)s2)cc1NS(=O)(=O)c1ccccc1[N+](=O)[O-]: 2240

---

- protocol_notes: Stability in human liver microsomes assessed as parent compound remaining level at 3 uM pre-incubated for 30 mins before NADPH addition by LC-MS/MS analysis
- Type: ADME, Microsome
- applied_conditions: read-out: Stability
Examples of compounds with documented remaining at 3 µM follow.
readout_kind: remaining at 3 µM

* CN1Cc2cc(-c3ccc(-c4cncc([N-]S(=O)(=O)c5ccc(F)cc5F)c4)s3)cnc2C1=O.[Na+] | 80%
* COc1ncc(-c2ccc(-c3cnc4c(c3)CN(C)C4=O)s2)cc1[N-]S(=O)(=O)c1ccccc1C(F)(F)F.[Na+] | 63%
* COc1ncc(-c2ccc(-c3cnc4c(c3)CN(C)C4=O)s2)cc1[N-]S(=O)(=O)c1ccc(F)cc1F.[Na+] | 75%
* CN1Cc2cc(-c3ccc(-c4cncc([N-]S(=O)(=O)c5cccc(C(F)(F)F)c5)c4)s3)cnc2C1=O.[Na+] | 46%
